Data origin: patent US20240116946A1

# target system: recombinant SARS-CoV-2 Main protease (Mpro) (Severe acute respiratory syndrome coronavirus 2 (2019-nCoV) (SARS-CoV-2))
# assay overview: Cov Mpro Biochemical IC50 Assay
# measurement parameters: recombinant SARS-CoV-2 Mpro, fluorogenic peptide substrate; read-out: MPro IC50
Here the recorded pIC50 is given for each entry.
Keep in mind that pIC50 stands for -log10 of concentration in molar terms.

O=c1[nH]c2cc(-c3c(Cl)cccc3-c3cnn4c3OCCC4)ccc2c(=O)n1-c1cncc2ccccc12	7.80
O=C1NCc2c1cccc2-c1cccc(Cl)c1-c1ccc2c(=O)n(-c3cncc4ccccc34)c(=O)[nH]c2c1	8.11

Q: Using the record for O=c1[nH]c2cc(-c3ccccc3Cl)c(OC3CC3)cc2c(=O)n1-c1cncc2ccccc12 , state its measured pIC50.
Ans: 6.11

Q: Let me know recorded pIC50 for CN1C(=O)CC(C)(C)c2cc(-c3cccc(Cl)c3-c3ccc4c(=O)n(-c5cncc6ccccc56)c(=O)[nH]c4c3)ccc21 , thanks.
Ans: 7.38
